// reported PA2 per item
target: histamine H2 receptor (Cavia porcellus, UniProt P47747); construct: histamine-induced chronotropic response, pA2; test: Measurement of histamine H2 receptor antagonizing activity (isolated right atrium, histamine dose-response of heart beat); design: species or system Hartley; settings: isolated guinea pig right atrium; test compound 1×10^-5 M; negative logarithm of molar concentration required to double the histamine concentration; Van Rossum method
Sequence (P47747 whole entry): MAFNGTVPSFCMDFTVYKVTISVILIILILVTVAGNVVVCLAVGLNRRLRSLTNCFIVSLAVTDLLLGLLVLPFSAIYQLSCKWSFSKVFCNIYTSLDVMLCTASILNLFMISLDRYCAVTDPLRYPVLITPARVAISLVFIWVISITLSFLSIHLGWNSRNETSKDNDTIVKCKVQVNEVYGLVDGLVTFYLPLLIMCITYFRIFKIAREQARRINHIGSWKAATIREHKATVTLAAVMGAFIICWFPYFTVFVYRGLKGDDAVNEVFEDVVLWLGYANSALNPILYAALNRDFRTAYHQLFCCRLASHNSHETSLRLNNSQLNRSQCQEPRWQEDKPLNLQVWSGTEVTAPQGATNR

// solved cases for PA2 follow
{"Molecule": "O=C(COC(=O)c1ccc(Cl)c(Cl)c1)NCCCOc1cccc(CN2CCCCCC2)c1", "Assay Value": 6.80}
{"Molecule": "COCC(=O)NCCCOc1cccc(CN2CCCCC2)c1", "Assay Value": 6.62}
{"Molecule": "CCC(c1cccc(OCCCNC(C)=O)c1)N1CCCC1 (stereo not drawn)", "Assay Value": 6.47}
{"Molecule": "CC(c1cccc(OCCCNC(=O)CO)c1)N1CCCC1 (stereo not drawn)", "Assay Value": 5.83}

Value wanted: PA2 (histamine H2 receptor (Cavia porcellus, UniProt P47747)) of entry CCC(=O)OCC(=O)NCCCOc1cccc(CN2CCCCC2)c1
6.77

API: value(readout=PA2, system=histamine H2 receptor (Cavia porcellus, UniProt P47747)) for record O=C(CO)NCCCOc1cccc(CN2CCCCCC2)c1
6.29

Quick check: PA2 on histamine H2 receptor (Cavia porcellus, UniProt P47747), item CC(c1cccc(OCCCNC=O)c1)N1CCCCCC1 (stereo not drawn) ?
6.14

Enter reported PA2 observed with histamine H2 receptor (Cavia porcellus, UniProt P47747) for O=C(COC(=O)c1ccccc1)NCCCOc1cccc(CN2CCCCC2)c1
6.74

What reported PA2 corresponds to CC(=O)OCC(=O)NCCCOc1cccc(CN2CCCCCC2)c1 on histamine H2 receptor (Cavia porcellus, UniProt P47747)?
6.28

What value of PA2 on histamine H2 receptor (Cavia porcellus, UniProt P47747) does CC(=O)OCC(=O)NCCCOc1cccc(C(C)N2CCCC2)c1 (stereo not drawn) have?
6.11

Lookup: PA2 / histamine H2 receptor (Cavia porcellus, UniProt P47747) / O=C(CO)NCCCOc1cccc(CN2CCCCC2)c1
6.79

* * *

assay: in vivo; details: mouse, oral, 5% Tween 80 suspension, male ddY mice 19-22 g, Litchfield-Wilcoxon method
Readout Label: LD50 at 72 h (mg/kg)
Provide only the numeric value, understood in mg/kg.

{"Compound": "CC(c1cccc(OCCCNC=O)c1)N1CCCC1 (centres unmarked)", "LD50 at 72 h (mg/kg)": 2500}

Alright, here's another compound for you.
If you can, please state the reported LD50 at 72 h value of CC(=O)NCCCOc1cccc(C(C)N2CCCC2)c1 (centres unmarked) .
2100

* * *

target: histamine H2 receptor (Cavia porcellus, UniProt P47747); construct: histamine-induced chronotropic response, pA2; experiment: Measurement of histamine H2 receptor antagonizing activity (isolated right atrium, histamine dose-response of heart beat); parameters: species or system Hartley; conditions: isolated guinea pig right atrium; test compound 1×10^-5 M; negative logarithm of molar concentration required to double the histamine concentration; Van Rossum method
Listing of recorded PA2 by entry.
The reply should be a number, written without any unit.

// known answers, use as guide
{"Compound": "CC(=O)NCCCOc1cccc(C(C)N2CCCC2)c1 (stereo not shown)", "Assay Value": 6.16}
{"Compound": "CC(c1cccc(OCCCNC=O)c1)N1CCCC1 (stereo not shown)", "Assay Value": 6.12}
{"Compound": "CCC(=O)NCCCOc1cccc(C(C)N2CCCC2)c1 (stereo not shown)", "Assay Value": 6.04}
{"Compound": "CC(=O)OCC(=O)NCCCOc1cccc(CN2CCCCC2)c1", "Assay Value": 7.10}
{"Compound": "CC(c1cccc(OCCCNC=O)c1)N1CCC(O)C1 (stereo not shown)", "Assay Value": 5.99}

So what's the measured PA2 for this one? CC(=O)NCCCOc1cccc(C(C)N2CCCCC2)c1 (stereo not shown)
5.97

Query: PA2; subject: CC(c1cccc(OCCCNC(=O)CCN)c1)N1CCCC1 (stereo not shown)
6.26

* * *

Molecular target: histamine H2 receptor (Cavia porcellus)
Construct: histamine-induced chronotropic response, pA2
Test: Measurement of histamine H2 receptor antagonizing activity (isolated right atrium, histamine dose-response of heart beat)
Design: species or system Hartley
Settings: isolated guinea pig right atrium; test compound 1×10^-5 M; negative logarithm of molar concentration required to double the histamine concentration; Van Rossum method
Procedure: (1) Measurement of histamine H2 receptor antagonizing activity A guinea pig, Hartley, (male 400-550 g) was struck at the head to let out blood, and the heart was enucleated. The right atrium was separated in a Tyrod solution saturated with oxygen, and a silk thread was attached to its both ends. […] The contracting motion of the atrium was recorded by a force-displacement transducer, and the number of heart beats was calculated. […]
Readout Label: PA2

{"Compound": "O=CNCCCOc1cccc(CN2CCCCC2)c1", "Readout Label": "PA2", "Assay Value": 6.50}
{"Compound": "CCC(c1cccc(OCCCNC=O)c1)N1CCCC1 (stereo not drawn)", "Readout Label": "PA2", "Assay Value": 6.49}

Would you kindly look at the next entry?
Give the measured PA2 of CC(=O)NCCCOc1cccc(CN2CCCCC2)c1 .
6.52
